Test system: AGS cells
Assay: Cell viability in AGS cells (CellTiter Glo2, 8-point dose response, 4 days)
Assay type: cell-based, human
Conditions: Homo sapiens, AGS, 96 h
Metric: IC50

Reference set, count: 4
CCC(=O)N1CCc2cc(-c3ccc(C(=O)NC(C)c4cccnc4)cc3)ccc21 (centres unmarked): > 28.2 µM
CCC(=O)N1CCc2cc(N3CC(C(=O)NCc4cccnc4)C3)ccc21: > 30 µM
CN(C(=O)CC#N)c1ccc(-c2ccc(C(=O)NCc3cccnc3)cc2)cc1: > 18.4 µM
CCC(=O)Nc1ccc(-c2ccc(C(=O)NCc3cccnc3)cc2)cc1: > 30 µM

# ---- query compound ----
// CCC(=O)N(C)c1ccc(-c2ccc(C(=O)NCc3cnccc3C)cc2)cc1 : IC50 value = > 30 µM

Reference source for all entries: patent US12522587B2
